- Tested on: Escherichia coli TOP10
- METHOD_DESCRIPTION: shrunken log2 fold change of peptide-encoding DNA abundance (4.5 h post-induction vs induction); higher = less antimicrobial activity (less host growth inhibition)
- CONDITION_NOTES: time post-induction: 4.5 h; library: site-saturation at positions 5, 18, 19, 20
Field: shrunken log2 fold change. Provide a value for each of the sequences that follow.

# get_value(readout= shrunken log2 fold change, system= Escherichia coli TOP10) for `RRIRNRPPRLPRPRPRPHLMPRP`
-0.584

# get_value(readout= shrunken log2 fold change, system= Escherichia coli TOP10) for `RRIRARPPRLPRPRPRPDKRPRP`
0.109

# get_value(readout= shrunken log2 fold change, system= Escherichia coli TOP10) for `RRIRNRPPRLPRPRPRPVMGPRP`
0.147

# get_value(readout= shrunken log2 fold change, system= Escherichia coli TOP10) for `RRIRLRPPRLPRPRPRPMDWPRP`
-0.0759

# get_value(readout= shrunken log2 fold change, system= Escherichia coli TOP10) for `RRIRWRPPRLPRPRPRPWTKPRP`
-0.0653

# get_value(readout= shrunken log2 fold change, system= Escherichia coli TOP10) for `RRIRGRPPRLPRPRPRPLYNPRP`
-0.247

# get_value(readout= shrunken log2 fold change, system= Escherichia coli TOP10) for `RRIRSRPPRLPRPRPRPNYCPRP`
-0.352

# get_value(readout= shrunken log2 fold change, system= Escherichia coli TOP10) for `RRIRMRPPRLPRPRPRPLKVPRP`
0.153

# get_value(readout= shrunken log2 fold change, system= Escherichia coli TOP10) for `RRIRYRPPRLPRPRPRPHPFPRP`
-1.3

# get_value(readout= shrunken log2 fold change, system= Escherichia coli TOP10) for `RRIRHRPPRLPRPRPRPDIAPRP`
0.00497

# get_value(readout= shrunken log2 fold change, system= Escherichia coli TOP10) for `RRIRCRPPRLPRPRPRPGGCPRP`
0.153

# get_value(readout= shrunken log2 fold change, system= Escherichia coli TOP10) for `RRIRRRPPRLPRPRPRPQSLPRP`
-0.0788

# get_value(readout= shrunken log2 fold change, system= Escherichia coli TOP10) for `RRIRIRPPRLPRPRPRPYLTPRP`
-1.45

# get_value(readout= shrunken log2 fold change, system= Escherichia coli TOP10) for `RRIRNRPPRLPRPRPRPGHVPRP`
-0.0552

# get_value(readout= shrunken log2 fold change, system= Escherichia coli TOP10) for `RRIRCRPPRLPRPRPRPYGIPRP`;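 further: peptides expressed intracellularly from a pBAD plasmid library in pooled LB shake-flask culture, induced with 0.3% L-arabinose, DNA abundance read by NGS, three biological replicates, DESeq2 with apeglm shrinkage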
-0.128
